Target: High affinity nerve growth factor receptor (Homo sapiens)
Sequence (P04629 whole entry): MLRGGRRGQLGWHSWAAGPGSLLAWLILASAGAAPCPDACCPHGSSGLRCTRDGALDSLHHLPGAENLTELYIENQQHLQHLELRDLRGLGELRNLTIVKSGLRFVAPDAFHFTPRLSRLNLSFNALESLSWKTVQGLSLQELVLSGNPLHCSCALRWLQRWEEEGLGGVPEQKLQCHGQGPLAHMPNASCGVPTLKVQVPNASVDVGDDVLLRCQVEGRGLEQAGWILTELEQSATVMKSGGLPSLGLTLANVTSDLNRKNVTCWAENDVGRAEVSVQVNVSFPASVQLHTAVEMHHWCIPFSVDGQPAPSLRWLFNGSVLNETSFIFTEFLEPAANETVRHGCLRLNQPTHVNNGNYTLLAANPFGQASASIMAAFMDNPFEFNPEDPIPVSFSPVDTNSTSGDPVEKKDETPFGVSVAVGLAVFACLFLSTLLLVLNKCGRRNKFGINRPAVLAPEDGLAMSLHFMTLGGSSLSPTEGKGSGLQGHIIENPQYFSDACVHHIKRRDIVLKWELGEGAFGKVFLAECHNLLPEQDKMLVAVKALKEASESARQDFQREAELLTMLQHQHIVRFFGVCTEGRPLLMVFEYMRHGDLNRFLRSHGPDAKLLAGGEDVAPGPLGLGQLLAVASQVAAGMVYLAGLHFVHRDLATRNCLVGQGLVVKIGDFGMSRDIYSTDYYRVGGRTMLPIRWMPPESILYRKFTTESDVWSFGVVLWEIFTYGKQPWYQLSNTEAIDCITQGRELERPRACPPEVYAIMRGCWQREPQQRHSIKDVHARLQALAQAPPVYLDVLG
endpoint: IC50 (µM)
The reply should contain only the number, in µM.

Lab note: need IC50 with High affinity nerve growth factor receptor (Homo sapiens) for entry `CC1(C)OCC(=O)Nc2cc(Nc3nc(NCC(F)(F)F)c4occc4n3)ccc21` , please look it up.
5.4

---

This listing pairs molecules with measured solubility at 48 h.
Experiment: Solubility in pH 5 FeSSIF at 0.2 mg sonicated for 10 mins followed by incubation for 2 days by HPLC analysis
Type: physicochemical

Would you please look over these solved cases?
I would be grateful if you could share the reported solubility at 48 h for `COC(=O)N[C@@H]1CC(C)(C)c2ccc(Nc3nc(NCC(F)F)c4occc4n3)cc2NC1=O` .
> 67 µM

I would be grateful if you could share the reported solubility at 48 h for `COC(=O)N[C@@H]1CC(C)(C)c2ccc(Nc3nc(NC4CC4)c4occc4n3)cc2NC1=O` .
27 µM

I would be grateful if you could share the reported solubility at 48 h for `CCCNc1nc(Nc2ccc3c(c2)NC(=O)COC3(C)C)nc2ccoc12` .
> 200 µM

I would be grateful if you could share the reported solubility at 48 h for `CC1(C)OCC(=O)Nc2cc(Nc3nc(NCC(F)(F)F)c4occc4n3)ccc21` .
4.96 µM

Others:
I would be grateful if you could share the reported solubility at 48 h for `CC1(C)OCC(=O)Nc2cc(Nc3nc(NC4CC4)c4occc4n3)ccc21` .
158 µM

I would be grateful if you could share the reported solubility at 48 h for `CCNc1nc(Nc2ccc3c(c2)NC(=O)COC3(C)C)nc2ccoc12` .
> 67 µM

I would be grateful if you could share the reported solubility at 48 h for `Cc1n[nH]c2cc(Nc3nc(NC4CC4)c4occc4n3)ccc12` .
99 µM

---

Assay: Cmax in rat at 1 mg/kg, po
Format: ADME, organism-based
Parameters: dose 1 mg/kg, route oral
Conditions: in vivo
endpoint: Cmax (µg/mL)
The reply should contain only the number, in µg/mL.

I would be grateful if you could share the reported Cmax for `COC(=O)N[C@@H]1CC(C)(C)c2ccc(Nc3nc(NCC(F)F)c4occc4n3)cc2NC1=O` .
0.036

---

This listing pairs compounds with measured IC50.
Molecular target: Insulin-like growth factor 1 receptor (Homo sapiens, UniProt P08069)
Sequence (P08069 31-736 limits assumed): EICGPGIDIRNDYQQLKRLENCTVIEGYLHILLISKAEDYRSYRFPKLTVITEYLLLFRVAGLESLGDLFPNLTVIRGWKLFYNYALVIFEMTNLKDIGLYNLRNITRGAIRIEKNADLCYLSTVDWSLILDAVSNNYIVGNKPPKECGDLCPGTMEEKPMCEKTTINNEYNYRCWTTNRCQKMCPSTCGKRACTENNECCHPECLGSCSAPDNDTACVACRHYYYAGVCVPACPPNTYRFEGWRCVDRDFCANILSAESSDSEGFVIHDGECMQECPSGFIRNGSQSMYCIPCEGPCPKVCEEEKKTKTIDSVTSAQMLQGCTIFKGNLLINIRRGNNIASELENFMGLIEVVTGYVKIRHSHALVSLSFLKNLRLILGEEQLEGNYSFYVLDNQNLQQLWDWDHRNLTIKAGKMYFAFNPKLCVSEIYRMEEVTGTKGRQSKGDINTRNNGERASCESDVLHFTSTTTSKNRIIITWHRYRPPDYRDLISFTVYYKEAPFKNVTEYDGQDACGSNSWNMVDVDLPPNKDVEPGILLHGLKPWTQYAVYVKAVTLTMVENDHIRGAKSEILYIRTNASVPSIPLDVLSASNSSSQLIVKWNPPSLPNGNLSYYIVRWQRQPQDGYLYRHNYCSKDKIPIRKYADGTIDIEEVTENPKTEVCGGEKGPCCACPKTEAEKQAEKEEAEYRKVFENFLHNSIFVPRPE
Sequence (P08069 741-1367 limits assumed): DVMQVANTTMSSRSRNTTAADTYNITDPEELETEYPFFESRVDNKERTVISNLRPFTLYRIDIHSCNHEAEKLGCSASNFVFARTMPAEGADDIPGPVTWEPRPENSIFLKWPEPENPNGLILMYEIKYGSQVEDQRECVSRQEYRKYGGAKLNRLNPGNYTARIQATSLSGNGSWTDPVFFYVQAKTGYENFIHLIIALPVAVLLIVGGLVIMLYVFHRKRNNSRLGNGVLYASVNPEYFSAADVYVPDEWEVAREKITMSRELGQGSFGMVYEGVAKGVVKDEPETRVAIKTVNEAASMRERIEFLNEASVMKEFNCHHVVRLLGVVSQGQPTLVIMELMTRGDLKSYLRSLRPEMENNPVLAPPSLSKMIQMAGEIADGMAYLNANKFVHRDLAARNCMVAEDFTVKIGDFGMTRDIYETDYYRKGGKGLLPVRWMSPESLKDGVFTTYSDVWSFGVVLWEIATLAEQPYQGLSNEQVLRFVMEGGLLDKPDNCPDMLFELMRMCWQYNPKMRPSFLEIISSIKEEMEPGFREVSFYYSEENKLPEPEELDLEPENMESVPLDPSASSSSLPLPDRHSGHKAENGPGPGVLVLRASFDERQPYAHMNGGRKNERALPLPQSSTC

I would be grateful if you could share the reported IC50 for `FC(F)(F)CNc1nc(Nc2ccc3cn[nH]c3c2)nc2ccoc12` .
> 10 µM

Others:
I would be grateful if you could share the reported IC50 for `Cc1n[nH]c2cc(Nc3nc(NC4CC4)c4occc4n3)ccc12` .
> 10 µM

I would be grateful if you could share the reported IC50 for `FC(F)(F)CNc1nc(Nc2ccc(N3CCOCC3)c(Cl)c2)nc2ccoc12` .
> 10 µM

---

Test: Oral bioavailability in rat at 1 mg/kg
Format: ADME, organism-based
Details: in vivo
endpoint: bioavailability (%)
The reply should contain only the number, in %.

I would be grateful if you could share the reported bioavailability for `COC(=O)N[C@@H]1CC(C)(C)c2ccc(Nc3nc(NCC(F)F)c4occc4n3)cc2NC1=O` .
27

---

Target: Serine/threonine-protein kinase pim-2 (Homo sapiens)
Sequence (Q9P1W9 whole entry): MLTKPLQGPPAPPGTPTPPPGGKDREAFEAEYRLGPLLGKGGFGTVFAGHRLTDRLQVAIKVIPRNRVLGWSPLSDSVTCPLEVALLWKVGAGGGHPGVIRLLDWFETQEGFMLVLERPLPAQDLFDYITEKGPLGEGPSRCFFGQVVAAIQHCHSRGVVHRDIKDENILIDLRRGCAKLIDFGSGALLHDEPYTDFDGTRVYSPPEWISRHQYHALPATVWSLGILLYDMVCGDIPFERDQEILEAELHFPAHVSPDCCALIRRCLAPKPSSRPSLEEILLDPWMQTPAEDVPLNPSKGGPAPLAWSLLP
endpoint: IC50

I would be grateful if you could share the reported IC50 for `CC1(C)OCC(=O)Nc2cc(Nc3nc(NCC(F)(F)F)c4occc4n3)ccc21` .
> 10 µM
